Parameter: IC50. Scope: all listed entries.
target: JAK2 (Homo sapiens (Human)); test: Jak Biochemical HTRF Assay, JAK2; details: HTRF biochemical assay, GST-tagged catalytic domain; top concentration tested […]

{"line notation": "COC(=O)c1ccccc1CN1CCC(CC#N)(n2cc(C(N)=O)c(Nc3ccccc3)n2)CC1", "unit spec": "nM", "IC50": 400}
{"line notation": "N#CCC(=O)N1CCC(CC#N)(n2cc(C(N)=O)c(Nc3ccccc3)n2)CC1", "unit spec": "nM", "IC50": 77}
{"line notation": "N#CCC1(n2cc(C(N)=O)c(Nc3ccc(F)cc3)n2)CCN(c2ccc(F)c(F)c2)CC1", "unit spec": "nM", "IC50": 70}
{"line notation": "CCOc1cccc(N2CCC(CC#N)(n3cc(C(N)=O)c(Nc4ccc(F)cc4)n3)CC2)n1", "unit spec": "nM", "IC50": 861}
{"line notation": "Cc1cc(Nc2nn(C3(CC#N)CCN(C(=O)OC(C)(C)C)CC3)cc2C(N)=O)ncn1", "unit spec": "nM", "IC50": 126}

----------
target: JAK1 (Homo sapiens (Human)); experiment: Jak Biochemical HTRF Assay, JAK1; details: HTRF biochemical assay, GST-tagged catalytic domain; top concentration tested […]; read-out: JAK1 IC50
Sequence (P23458 875-1153): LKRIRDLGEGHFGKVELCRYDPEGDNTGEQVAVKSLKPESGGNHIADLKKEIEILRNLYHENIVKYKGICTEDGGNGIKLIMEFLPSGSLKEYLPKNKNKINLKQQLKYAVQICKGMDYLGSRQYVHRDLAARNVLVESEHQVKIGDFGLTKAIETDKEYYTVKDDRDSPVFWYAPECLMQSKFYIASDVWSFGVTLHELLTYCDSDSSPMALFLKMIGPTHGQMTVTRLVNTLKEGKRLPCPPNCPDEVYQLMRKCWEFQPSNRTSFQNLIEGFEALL
Simple rule here: IC50 less than 0.5 nM is satisfied, otherwise not satisfied.

{"compound": "N#CCC1(n2cc(C(N)=O)c(Nc3ccc(F)cc3)n2)CCN(Cc2ccc3cc[nH]c3c2)CC1", "answer label": "not satisfied"}
{"compound": "N#CCC1(n2cc(C(N)=O)c(Nc3ccnc(F)c3)n2)CCC(NCc2cccc(O)c2)CC1 (stereo not drawn)", "answer label": "not satisfied"}
{"compound": "Cc1c(CN2CCC(CC#N)(n3cc(C(N)=O)c(Nc4ccnc(F)c4)n3)CC2)cnn1C", "answer label": "not satisfied"}
{"compound": "CC(C)(C(=O)N1CCC(CC#N)(n2cc(C(N)=O)c(Nc3ccnc(F)c3)n2)CC1)C(F)(F)F", "answer label": "not satisfied"}
{"compound": "N#CCC1(n2cc(C(N)=O)c(Nc3ccnc(F)c3)n2)CCC(Nc2ccc(F)cc2F)CC1 (stereo not drawn) [Example 40-33]", "answer label": "satisfied"}
{"compound": "N#CCC1(n2cc(C(N)=O)c(Nc3ccc(F)cc3)n2)CCN(Cc2cncc(F)c2)CC1", "answer label": "not satisfied"}
{"compound": "N#CCC1(n2cc(C(N)=O)c(Nc3ccnc(F)c3)n2)CCC(N2CCC(O)CC2)CC1 (stereo not drawn)", "answer label": "not satisfied"}
{"compound": "N#CCC1(n2cc(C(N)=O)c(Nc3ccc(F)cc3)n2)CCN(C(=O)OCC2CC2)CC1", "answer label": "not satisfied"}
{"compound": "Cn1c(C(=O)N2CCC(CC#N)(n3cc(C(N)=O)c(Nc4ccccc4)n3)CC2)cc2ccccc21", "answer label": "not satisfied"}
{"compound": "N#CCC1(n2cc(C(N)=O)c(Nc3ccc(F)cc3)n2)CCN(C(=O)OCC2CC2(F)F)CC1 (stereo not drawn)", "answer label": "not satisfied"}
{"compound": "N#CCC1(n2cc(C(N)=O)c(Nc3ccc(F)cc3)n2)CCN(C(=O)OCC2CCOC2)CC1 (stereo not drawn)", "answer label": "not satisfied"}
{"compound": "CC(C)(C)OC(=O)N1CCC(CC#N)(n2cc(C(N)=O)c(Nc3ccc(S(C)(=O)=O)cc3)n2)CC1", "answer label": "satisfied"}
{"compound": "CN(c1ccccc1)C1CCC(CC#N)(n2cc(C(N)=O)c(Nc3ccnc(F)c3)n2)CC1 (stereo not drawn) [Example 40-15]", "answer label": "satisfied"}
{"compound": "CC(C)(C)OC(=O)N1CCC(CC#N)(n2cc(C(N)=O)c(Nc3ccnnc3)n2)CC1", "answer label": "satisfied"}

----------
target: JAK2 (Homo sapiens (Human), UniProt O60674); assay: Jak Biochemical HTRF Assay, JAK2; settings: HTRF biochemical assay, GST-tagged catalytic domain; top concentration tested […]
Sequence (O60674 849-1124): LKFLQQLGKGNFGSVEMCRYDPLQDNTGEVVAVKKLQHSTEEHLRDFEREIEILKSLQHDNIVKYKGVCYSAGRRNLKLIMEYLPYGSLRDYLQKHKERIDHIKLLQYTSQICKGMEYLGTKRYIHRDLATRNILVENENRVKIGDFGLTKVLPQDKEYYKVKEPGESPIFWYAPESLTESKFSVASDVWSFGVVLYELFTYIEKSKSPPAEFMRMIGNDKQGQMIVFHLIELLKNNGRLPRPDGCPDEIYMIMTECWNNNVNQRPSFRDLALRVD
pIC50: −log10 of the molar value.
Kindly return Condition met if reported pIC50 is no lower than 7; return Condition not met if it is lower.

{"molecule": "CC(C(=O)N1CCC(CC#N)(n2cc(C(N)=O)c(Nc3ccnc(F)c3)n2)CC1)C(F)(F)F (centres unmarked)", "answer label": "Condition met"}
{"molecule": "N#CCC1(n2cc(C(N)=O)c(Nc3ccccc3)n2)CN(C(=O)OCc2cccnc2)C1", "answer label": "Condition not met"}
{"molecule": "CC(C)NC(=O)N1CCC(CC#N)(n2cc(C(N)=O)c(Nc3ccccc3)n2)CC1", "answer label": "Condition met"}
{"molecule": "N#CCC1(n2cc(C(N)=O)c(Nc3ccnc(F)c3)n2)CCC(Nc2ccc(F)c(F)c2)CC1 (centres unmarked) [Example 40-20]", "answer label": "Condition met"}

----------
Quick reference: pIC50 of the listed items.
molecular target: JAK1 (Homo sapiens (Human)); test: Jak Biochemical HTRF Assay, JAK1; conditions: HTRF biochemical assay, GST-tagged catalytic domain; top concentration tested […]; read-out: JAK1 IC50
pIC50: −log10 of the molar value.

{"compound": "CC(C)(C)OC(=O)N1CCC(CC#N)(n2cc(C(N)=O)c(Nc3cc(F)cc(F)c3)n2)CC1", "pIC50": 8.70}
{"compound": "COCCNC1CCC(CC#N)(n2cc(C(N)=O)c(Nc3ccc(F)cc3)n2)CC1 (centres unmarked)", "pIC50": 7.62}
{"compound": "CC(C)NC(=O)N1CCC(CC#N)(n2cc(C(N)=O)c(Nc3ccccc3)n2)CC1", "pIC50": 8.70}
{"compound": "CN1CCC(OC(=O)N2CCC(CC#N)(n3cc(C(N)=O)c(Nc4ccccc4)n3)CC2)CC1", "pIC50": 7.39}
{"compound": "N#CCC1(n2cc(C(N)=O)c(Nc3ccc(F)cc3)n2)CCN(Cc2cnccn2)CC1", "pIC50": 9.00}
{"compound": "CC(C)(C)OC(=O)N1CC2(C1)CC(CC#N)(n1cc(C(N)=O)c(Nc3ccccc3)n1)C2", "pIC50": 6.70}
{"compound": "N#CCC1(n2cc(C(N)=O)c(Nc3ccc(S(=O)(=O)C(F)(F)F)cc3)n2)CCN(C(=O)OC2COC2)CC1", "pIC50": 9.70}
{"compound": "N#CCC1(n2cc(C(N)=O)c(Nc3ccccc3)n2)CN(C(=O)OCCF)C1", "pIC50": 8.70}
{"compound": "CCOc1ccc(NC(=O)N2CC(CC#N)(n3cc(C(N)=O)c(Nc4ccccc4)n3)C2)cc1", "pIC50": 8.70}
{"compound": "N#CCC1(n2cc(C(N)=O)c(Nc3ccc(S(=O)(=O)C(F)F)cc3)n2)CCC(Nc2ccccc2)CC1 (centres unmarked) [Example 40-102]", "pIC50": 10.30}
{"compound": "N#CCC1(n2cc(C(N)=O)c(Nc3ccnc(F)c3)n2)CCN(Cc2ncco2)CC1", "pIC50": 8.52}
{"compound": "CC(C)(C)OC(=O)N1CCC(CC#N)(n2cc(C(N)=O)c(Nc3ccc(C#N)nc3)n2)CC1", "pIC50": 9.30}
{"compound": "COC1CN(C2CCC(CC#N)(n3cc(C(N)=O)c(Nc4ccc(F)cc4)n3)CC2)C1 (centres unmarked)", "pIC50": 9.00}
{"compound": "CC(C)(C)OC(=O)N1CC(CC#N)(n2cc(C(N)=O)c(Nc3ccc(S(C)(=O)=O)cc3)n2)C1", "pIC50": 9.22}
{"compound": "COCC(=O)N1CCC(CC#N)(n2cc(C(N)=O)c(Nc3ccccc3)n2)CC1", "pIC50": 8.30}
{"compound": "N#CCC1(n2cc(C(N)=O)c(Nc3ccc(F)cc3)n2)CCC(Nc2ccc(F)cc2)CC1 (centres unmarked) [Example 40-18]", "pIC50": 6.63}
{"compound": "N#CCC1(n2cc(C(N)=O)c(Nc3ccc(F)cc3)n2)CCC(NCc2ccccc2)CC1 (centres unmarked)", "pIC50": 10.40}
{"compound": "C[C@@H](OC(=O)N1CCC(CC#N)(n2cc(C(N)=O)c(Nc3ccnc(F)c3)n2)CC1)C1CC1", "pIC50": 9.52}
{"compound": "N#CCC1(n2cc(C(N)=O)c(Nc3ccc(S(=O)(=O)C(F)F)cc3)n2)CCC(Nc2ccccc2)CC1 (centres unmarked) [Example 40-88]", "pIC50": 6.70}
{"compound": "Cc1cccc(C)c1NC(=O)N1CC(CC#N)(n2cc(C(N)=O)c(Nc3ccccc3)n2)C1", "pIC50": 7.48}
{"compound": "CC(C)(C)OC(=O)N1CCC(CC#N)(n2cc(C(N)=O)c(Nc3ccc4c(c3)CNC4=O)n2)CC1", "pIC50": 10.00}
{"compound": "CC(C)(C)OC(=O)N1CCC(CC#N)(n2cc(C(N)=O)c(Nc3ccc(F)c(F)c3)n2)CC1", "pIC50": 9.00}
{"compound": "COc1ccc(S(=O)(=O)N2CCC(CC#N)(n3cc(C(N)=O)c(Nc4ccccc4)n3)CC2)cc1", "pIC50": 9.10}
{"compound": "N#CCC1(n2cc(C(N)=O)c(Nc3ccc(F)cc3)n2)CCN(Cc2ccccc2)CC1", "pIC50": 9.52}
{"compound": "Cn1cc(-c2ccc(Nc3nn(C4(CC#N)CCN(C(=O)OCC(F)(F)F)CC4)cc3C(N)=O)cn2)cn1", "pIC50": 10.52}
{"compound": "CS(=O)(=O)CC(=O)N1CCC(CC#N)(n2cc(C(N)=O)c(Nc3ccnc(F)c3)n2)CC1", "pIC50": 9.30}
